Sourced from patent US20240368267A1

# key: entry, value: koff
- TARGET DESC: T1, recombinant human IL-6 (human, UniProt P05231 30-212)
- T1 construct: bought protein; also called interleukin-6
- T1 sequence (P05231 30-212 limits assumed): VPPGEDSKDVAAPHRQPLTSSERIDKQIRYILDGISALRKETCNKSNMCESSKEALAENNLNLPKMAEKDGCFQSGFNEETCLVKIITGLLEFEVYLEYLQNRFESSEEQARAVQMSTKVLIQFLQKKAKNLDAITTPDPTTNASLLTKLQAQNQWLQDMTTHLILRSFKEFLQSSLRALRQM
- PROTOCOL DESCRIPTION: Biacore, Fab lysate over IL-6 chip, 25 C
State the answer as a number, implicitly in s⁻¹.

Worked cases, koff given:
[[record]]
binder = "anti-IL-6 Fab, light chain V29L (Fab, V domains shown, built as m22 plus the named change) VH: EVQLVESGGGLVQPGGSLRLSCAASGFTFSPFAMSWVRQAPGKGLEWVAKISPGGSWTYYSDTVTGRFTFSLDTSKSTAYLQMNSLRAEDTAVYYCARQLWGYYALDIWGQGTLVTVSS VL: DIQLTQSPSSLSASVGDRVTITCSASISLSYMYWYQQKPGKAPKLLIYDMSNLASGVPSRFSGSGSGTDFTLTISSLQPEDFATYYCMQWSGYPYTFGQGTKVEIK"
number = 0.00943

[[record]]
binder = "anti-IL-6 Fab, heavy chain A105Q (Fab, V domains shown, built as m22 plus the named change) VH: EVQLVESGGGLVQPGGSLRLSCAASGFTFSPFAMSWVRQAPGKGLEWVAKISPGGSWTYYSDTVTGRFTFSLDTSKSTAYLQMNSLRAEDTAVYYCARQLWGYYQLDIWGQGTLVTVSS VL: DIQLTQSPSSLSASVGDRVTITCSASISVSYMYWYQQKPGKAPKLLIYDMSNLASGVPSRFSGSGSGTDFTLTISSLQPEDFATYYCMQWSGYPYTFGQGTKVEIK"
number = 0.00378


Now examine the next entry.
Kindly note the recorded koff for anti-IL-6 Fab, heavy chain A105K (Fab, V domains shown, built as m22 plus the named change) VH: EVQLVESGGGLVQPGGSLRLSCAASGFTFSPFAMSWVRQAPGKGLEWVAKISPGGSWTYYSDTVTGRFTFSLDTSKSTAYLQMNSLRAEDTAVYYCARQLWGYYKLDIWGQGTLVTVSS VL: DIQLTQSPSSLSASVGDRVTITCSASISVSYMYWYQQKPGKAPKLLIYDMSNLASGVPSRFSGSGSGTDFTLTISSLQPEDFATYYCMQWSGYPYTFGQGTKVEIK , which is 0.00401
